Quantity name: melting point
Hi, when you answer, please include the unit after the number. Thanks!

Return reported melting point. Input compound: Cc1cc(-n2nc(Nc3cccc(C(F)(F)F)c3)nc2CC(=O)NC2CCC2)cc(C)n1 [E174]
276.3 °C

Give me measured melting point, please, for this compound: C[C@H](O)Cc1nc(Nc2ccc(F)c(C(F)(F)F)c2)nn1-c1cccc(F)c1 [E18]
161 °C

Using known records, supply melting point for C[C@H](O)Cc1nc(Nc2ccc(F)c(C(F)(F)F)c2)nn1-c1ccncc1Cl [E25]
150.3 °C

Return melting point for the following compound: Cc1cc(-n2nc(Nc3cc(F)c(F)cc3F)nc2C[C@H](C)O)cc(C)n1 [E194]
177.7 °C

Answer with the recorded melting point for the compound listed here: Cc1cc(-n2nc(Nc3ccc(F)c(C(F)(F)F)c3)nc2CCCCl)ccn1 [E9]
182.8 °C

Input Cc1cc(-n2nc(Nc3cccc(OC(F)(F)F)c3)nc2CC(=O)NCC2CC2)cc(C)n1 [E165] , output reported melting point.
247.5 °C

Query melting point for CCNC(=O)Cc1nc(Nc2ccc(F)c(C(F)(F)F)c2)nn1-c1cc(C)nc(C)c1 [E224]
256.2 °C

Supply melting point value. Item: CC[C@H](O)Cc1nc(Nc2ccc(F)c(F)c2)nn1-c1ccc(C)nc1 [E140]
127.5 °C

State, in one line, measured melting point of CNC(=O)CCc1nc(Nc2ccc(F)c(F)c2)nn1-c1ccc(Cl)cc1 [E40]
177.3 °C
